Reference source for all entries: patent US9296741B2

biological target: human BRD4 second bromodomain (BDII_E352-M457) (Homo sapiens (Human), UniProt O60885); assay: TR-FRET bromodomain binding assay, BRD4 second bromodomain
# Ki per record follows

{"compound": "Cn1cc(-c2cc(S(C)(=O)=O)cnc2Oc2ccc(F)cc2F)c2cc[nH]c2c1=O [Example 288]", "Ki": "53.9 nM"}
{"compound": "CC1CCC(Oc2ccc(S(C)(=O)=O)cc2-c2cn(C)c(=O)c3[nH]ccc23)CC1 (stereo not shown) [Example 233]", "Ki": "1.5 nM"}
{"compound": "Cn1cc(-c2cc(S(C)(=O)=O)ccc2OC2C3CC4CC(C3)CC2C4)c2cc[nH]c2c1=O (stereo not shown) [Example 237]", "Ki": "3.5 nM"}
{"compound": "C=C(C)c1cc2c(-c3cc(S(C)(=O)=O)ccc3Oc3ccc(F)cc3F)cn(C)c(=O)c2[nH]1 [Example 291]", "Ki": "23.7 nM"}
